B1: Formin-binding protein 4, residues 200 to 261; numbered along this chain, Q8N3X1 (parent)
chain: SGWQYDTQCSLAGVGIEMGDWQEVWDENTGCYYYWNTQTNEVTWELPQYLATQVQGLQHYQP

variants of: B1; experiment: abundance fitness (aPCA) (normalised: wild type 0, dead -1); higher = more abundant; growth selection in yeast, the domain comes from the species named; conditions: Homo sapiens
measuredProperty: abundance fitness

{"mutationCode": "Q48D", "reportedValue": 0.02}
{"mutationCode": "G56Y", "reportedValue": -0.401}
{"mutationCode": "V24T", "reportedValue": -0.036}
{"mutationCode": "T37C", "reportedValue": 0.089}
{"mutationCode": "S1C", "reportedValue": -0.068}
{"mutationCode": "M18K", "reportedValue": -0.618}
{"mutationCode": "V42C", "reportedValue": -0.242}
{"mutationCode": "E41N", "reportedValue": -0.364}
{"mutationCode": "L11A", "reportedValue": -0.731}
{"mutationCode": "E27V", "reportedValue": -0.373}
{"mutationCode": "D26T", "reportedValue": -0.178}
{"mutationCode": "Q55R", "reportedValue": -0.12}
